Parameter: EC50. Scope: all listed entries.
# experimental_target: Human GPR40 (Homo sapiens (Human), UniProt O14842)
# Sequence (O14842 whole entry): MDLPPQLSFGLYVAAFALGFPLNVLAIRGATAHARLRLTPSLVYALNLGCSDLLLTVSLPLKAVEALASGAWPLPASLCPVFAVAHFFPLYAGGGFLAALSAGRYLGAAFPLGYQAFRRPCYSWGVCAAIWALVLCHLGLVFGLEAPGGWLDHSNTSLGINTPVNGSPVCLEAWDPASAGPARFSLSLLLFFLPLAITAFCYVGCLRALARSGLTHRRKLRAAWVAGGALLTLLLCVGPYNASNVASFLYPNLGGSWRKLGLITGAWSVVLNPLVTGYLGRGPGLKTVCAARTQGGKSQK
# protocol_text: Inositol Phosphate Turnover (IP1) Assay 1, HEK cells stably expressing human GPR40, 3H-inositol SPA
# Assay type: cell-based
# experimental_setup: HEK cells stably expressing human GPR40, 96-well
quantity: EC50

molecule: C[C@H](C(=O)O)[C@H](c1cccc(OCC2CC(Oc3ccccc3F)C2)c1)C1CC1 (stereo partly shown)
quantity: EC50
reading: 110 nM

molecule: C[C@H](C(=O)O)[C@H](c1cccc(OCC2CN(c3cccc(C(F)(F)F)n3)C2)c1)C1CC1
quantity: EC50
reading: 279 nM

molecule: COc1cccc(F)c1OC1CC(COc2cccc([C@H](C3CC3)[C@H](C)C(=O)O)c2)C1 (single isomer, unassigned) [Example 129]
quantity: EC50
reading: 109 nM

molecule: COc1cc(C2CC(COc3cccc([C@H](C4CC4)[C@H](C)C(=O)O)c3)C2)ccn1 (single isomer, unassigned) [Example 88]
quantity: EC50
reading: 930 nM

molecule: COc1cccc(C2=CCC(COc3cccc([C@H](C4CC4)[C@H](C)C(=O)O)c3)C2)c1 (stereo partly shown)
quantity: EC50
reading: 75 nM

molecule: CCOc1ccc(OC2CC(COc3cccc([C@H](C4CC4)[C@H](C)C(=O)O)c3)C2)cc1 (stereo partly shown)
quantity: EC50
reading: 1210 nM

molecule: COc1ccc(F)cc1CN1CC(COc2cccc([C@@H](CC(=O)O)C3CC3)c2)C1
quantity: EC50
reading: 4780 nM

All values here come from patent US10059667B2.
